Recorded In vitro activity (%) vs. Glucagon, cAMP EC50 for the following binders
assayed.target: human GCG receptor (human, UniProt P47871 26-477)
Sequence (P47871 26-477): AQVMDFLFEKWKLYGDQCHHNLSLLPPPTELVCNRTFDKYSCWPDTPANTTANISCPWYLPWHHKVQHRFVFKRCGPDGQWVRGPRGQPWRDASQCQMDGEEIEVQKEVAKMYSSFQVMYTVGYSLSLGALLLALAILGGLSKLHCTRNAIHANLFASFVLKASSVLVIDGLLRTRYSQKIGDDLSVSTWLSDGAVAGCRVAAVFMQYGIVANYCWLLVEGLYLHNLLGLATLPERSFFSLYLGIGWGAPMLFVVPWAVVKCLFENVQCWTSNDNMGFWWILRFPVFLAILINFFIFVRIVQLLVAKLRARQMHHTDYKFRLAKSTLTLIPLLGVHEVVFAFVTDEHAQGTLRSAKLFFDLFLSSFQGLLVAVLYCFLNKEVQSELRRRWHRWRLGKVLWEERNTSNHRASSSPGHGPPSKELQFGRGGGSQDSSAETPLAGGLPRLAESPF
protocol.description: cell-based or functional assay
Bridges are numbered along the chain shown (N, C = ends). Where no end group is shown, it is not given here. [ ]: non-standard residue; d: D form. The star is where a group is joined. Acetyl(2-(4-imidazolyl)) = O=C(Cc1c[nH]cn1)*; Aib = CC(C)(N)C(=O)O
Form entry: value (%) — number only.

1. {Acetyl(2-(4-imidazolyl))}-[Aib]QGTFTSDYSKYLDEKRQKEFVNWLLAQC (bridge 15-19) [triple agonist of SEQ ID NO: 86]    0.4
2. H[Aib]QGTFTSDYSKYLDEKAAKEFVQWLLNTC (bridge 16-20) [triple agonist of SEQ ID NO: 29]    6

Shift focus to the following entry.
// field: In vitro activity (%) vs. Glucagon, cAMP EC50; key: Y[Aib]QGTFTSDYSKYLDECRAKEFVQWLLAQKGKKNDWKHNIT (bridge 16-20) [triple agonist of SEQ ID NO: 23] ; value = 9.3
